Reference for the values: patent US4463171A

- Test system: Bacillus subtilis NRRL B558
- assay text: Antibacterial activity (minimum inhibitory concentration), tube dilution method
- Format: cell-based
- condition set: Bacillus subtilis, NRRLB558; tube dilution method, brain heart infusion broth (pH 7.5); read-out: minimum inhibitory concentration, Bacillus subtilis NRRL B558
metric name: MIC (µg/mL)
# unit: µg/mL | format: bare number

## Input Report MIC for CCC1OC(=O)CC(O)C(C)C(OC2OC(C)C(OC3CC(C)(O)C(OC(=O)CC(C)C)C(C)O3)C(N(C)C)C2O)C(CC=O)CC(C)C(=O)C=CC(C)=CC1CO (stereo not drawn) [R1=H, R3=drawing 66, AR4=OH, 4"-O-isovaleryl-YO-9010] please.
## Output 0.8

## Input So what's the measured MIC for this one? CCC1OC(=O)CC(O)C(C)C(OC2OC(C)C(OC3CC(C)(O)C(O)C(C)O3)C(N(C)C)C2O)C(CC=O)CC(C)C(=O)C=CC(C)=CC1COS(=O)(=O)c1ccc(C)cc1 (stereo not drawn) [R1=H, R3=H, AR4=drawing 79]
## Output 0.4

## Input GET /values?readout=MIC&item= CCC1OC(=O)CC(O)C(C)C(OC2OC(C)C(OC3CC(C)(O)C(OC(C)=O)C(C)O3)C(N(C)C)C2O)C(CC=O)CC(C)C(=O)C=CC(C)=CC1CO (stereo not drawn)
## Output 1.6

## Input Requested field: MIC. Item: CCC1OC(=O)CC(OC(C)=O)C(C)C(OC2OC(C)C(OC3CC(C)(O)C(OC(=O)CC(C)C)C(C)O3)C(N(C)C)C2O)C(CC=O)CC(C)C(=O)C=CC(C)=CC1CBr (stereo not drawn) [R1=COCH3, R3=drawing 68, AR4=Br]
## Output 1.6

## Input Name the recorded MIC for CCC1OC(=O)CC(OC(C)=O)C(C)C(OC2OC(C)C(OC3CC(C)(O)C(OC(=O)CC(C)C)C(C)O3)C(N(C)C)C2O)C(CC=O)CC(C)C(=O)C=CC(C)=CC1CO (stereo not drawn) [N-1 substance, 3-O-acetyl-4"-O-isovaleryl-YO-9010, reference compound] .
## Output 0.8

## Input For the compound CCC1OC(=O)CC(O)C(C)C(OC2OC(C)C(OC3CC(C)(O)C(OC(=O)CSc4ccccc4)C(C)O3)C(N(C)C)C2O)C(CC=O)CC(C)C(=O)C=CC(C)=CC1CBr (stereo not drawn) [R1=H, R3=drawing 69, AR4=Br] , what MIC is on record?
## Output 1.6

## Input Return reported MIC; argument: CCC1OC(=O)CC(O)C(C)C(OC2OC(C)C(OC3CC(C)(OC(C)=O)C(OC(=O)CC(C)C)C(C)O3)C(N(C)C)C2O)C(CC=O)CC(C)C(=O)C=CC(C)=CC1CO (stereo not drawn) [(R2)=COCH3, R3=drawing 66, AR4=OH, 3"-O-acetyl-4"-O-isovaleryl-YO-9010]
## Output 0.4

---

What MIC was measured for each of the following?
- System: Bacillus subtilis NRRL B558
- assay text: Antibacterial activity (minimum inhibitory concentration), tube dilution method
- Assay type: cell-based
- condition set: Bacillus subtilis, NRRLB558; tube dilution method, brain heart infusion broth (pH 7.5); read-out: minimum inhibitory concentration, Bacillus subtilis NRRL B558

## Input Need MIC, item CCC1OC(=O)CC(O)C(C)C(OC2OC(C)C(OC3CC(C)(O)C(O)C(C)O3)C(N(C)C)C2O)C(CC=O)CC(C)C(=O)C=CC(C)=CC1COC(=O)C(NSc1ccccc1[N+](=O)[O-])c1ccccc1 (stereo not shown) [R1=H, R3=H, AR4=drawing 74]
## Output 0.8 µg/mL

## Input Reported MIC, molecule CCC1OC(=O)CC(O)C(C)C(OC2OC(C)C(OC3CC(C)(O)C(OC(=O)CC(C)C)C(C)O3)C(N(C)C)C2O)C(CC=O)CC(C)C(=O)C=CC(C)=CC1COC(=O)CC(C)C (stereo not shown) [R1=H, R3=drawing 77, AR4=drawing 78] : ____
## Output 0.8 µg/mL

## Input What does the data say about its MIC? Entry: CCC1OC(=O)CC(O)C(C)C(OC2OC(C)C(OC3CC(C)(O)C(OC(=O)CC(C)C)C(C)O3)C(N(C)C)C2O)C(CC=O)CC(C)C(=O)C=CC(C)=CC1CSc1ccccc1 (stereo not shown) [R1=H, R3=drawing 82, AR4=drawing 83]
## Output 3.1 µg/mL

## Input Data request, read-out MIC, for CCC1OC(=O)CC(O)C(C)C(OC2OC(C)C(OC3CC(C)(O)C(O)C(C)O3)C(N(C)C)C2O)C(CC=O)CC(C)C(=O)C=CC(C)=CC1CO (stereo not shown) [Antibiotic YO9010, 23-demycinosyltylosin, reference compound]
## Output 1.6 µg/mL

---

Please respond with reported MIC for every item in the list.
- Test system: Bacillus subtilis NRRL B558
- assay text: Antibacterial activity (minimum inhibitory concentration), tube dilution method
- Assay type: cell-based
- condition set: Bacillus subtilis, NRRLB558; tube dilution method, brain heart infusion broth (pH 7.5); read-out: minimum inhibitory concentration, Bacillus subtilis NRRL B558
Give the quantity in µg/mL, number only.

## Input What measured MIC goes with CCC1OC(=O)CC(O)C(C)C(OC2OC(C)C(OC3CC(C)(O)C(O)C(C)O3)C(N(C)C)C2O)C(CC=O)CC(C)C(=O)C=CC(C)=CC1COC1CCCCO1 (stereo not shown) [R1=H, R3=H, AR4=drawing 84] ?
## Output 0.8

## Input Which MIC is listed for CCC1OC(=O)CC(O)C(C)C(OC2OC(C)C(OC3CC(C)(OC(C)=O)C(OC(=O)CC(C)C)C(C)O3)C(N(C)C)C2O)C(CC=O)CC(C)C(=O)C=CC(C)=CC1COC(C)=O (stereo not shown) [(R2)=COCH3, R3=drawing 75, AR4=OCOCH3] ?
## Output 1.6

## Input Need MIC of CCC1OC(=O)CC(O)C(C)C(OC2OC(C)C(OC3CC(C)(O)C(OC(=O)CC(C)C)C(C)O3)C(N(C)C)C2O)C(CC=O)CC(C)C(=O)C=CC(C)=CC1COC(C)=O (stereo not shown) [R1=H, R3=drawing 75, AR4=OCOCH3, 23-O-Acetyl-4"-O-isovaleryl-YO-9010] , thanks.
## Output 1.6

## Input # get_value(readout='MIC', item= CCC1OC(=O)CC(O)C(C)C(OC2OC(C)C(OC3CC(C)(O)C(OC(=O)CC(C)C)C(C)O3)C(N(C)C)C2O)C(CC=O)CC(C)C(=O)C=CC(C)=CC1CBr (stereo not shown) [R1=H, R3=drawing 68, AR4=Br] )
## Output 0.4
